test: Cytotoxicity, Vero; assay type: cell-based; settings: African green monkey, Vero cells
Quantity kind: IC50 (µM)
Unit µM implied. Number only.

Query string: Please look up its IC50: CC1=C2Cc3cc(ccc3O)C(=O)O[C@H](C(C)(C)Br)CC[C@](C)(O)[C@H](Br)CC[C@]2(C)[C@@H](Br)CC1 [Compound 1]
Result string: 34.6

---

tested on: Plasmodium falciparum parasites (3D7 strain); test: SYBR Green based parasite proliferation assay (antimalarial activity); type: cell-based; conditions: Table 5; Example 5 numbering (1-13); read-out: P. falciparum (3D7) IC50
Quantity kind: IC50 (µM)
All answers are understood in µM, so give the number only.

Query string: Which measured IC50 belongs to CC1=C2Cc3cc(ccc3O)C(=O)O[C@H](C(C)(C)Br)CC[C@](C)(O)[C@H](Br)CC[C@]2(C)[C@@H](Br)CC1 , tested on Plasmodium falciparum parasites (3D7 strain)?
Result string: 0.66
